Sourced from PubChem BioAssay (NCATS)

- ASSAY COMMENT: Cell Viability - LYMP1-002 - Assay at 24 hr (AID 993)
- ASSAY SETUP: LYMP1-002 lymphoblastoid cells viability; series mostly up to 92.2 µM
Active and inactive are the calls of the source. Calls come from the whole dose curve; as a rule, active = well fitted cell-killing curve with a large enough effect; inconclusive = small, poorly fitted or top-dose-only effect; inactive = flat fitted curve, though single readings scatter.
Hello, when you answer, please use one of the following outcomes: active, inactive

Examples with answers:
NNC(=O)c1ccncc1
inactive
O=C(N[C@H](CO)[C@H](O)c1ccc([N+](=O)[O-])cc1)C(Cl)Cl
inactive

Shift focus to the following entry.
What was the test verdict on `CN(C)c1ccc(C(=C2C=CC(=[N+](C)C)C=C2)c2ccc(N(C)C)cc2)cc1` ? active

---

- ASSAY COMMENT: Quantitative High-Throughput drug screen in 47 multiple myeloma cell lines against the NCATS MIPE library collection: AMO1_DSMZ cell viability assay (AID 1918927; note: nearly all actives have a fitted effect of over 30% in size)
- ASSAY SETUP: AMO1 myeloma cells viability, CellTiter-Glo ATP luminescence, 48 h; series mostly up to 45.8 µM
Results filed as inconclusive are left out. The source made the active and inactive calls. Calls come from the whole dose curve; as a rule, active = well fitted cell-killing curve with a large enough effect; inconclusive = small, poorly fitted or top-dose-only effect, or effect the other way; inactive = no such curve, though single readings can be large or run the other way.
Hello, when you answer, please use one of the following outcomes: y (active), n (inactive)

Examples with answers:
CC(C)(Sc1cc(C(C)(C)C)c(O)c(C(C)(C)C)c1)Sc1cc(C(C)(C)C)c(O)c(C(C)(C)C)c1
n
COC(c1ccccc1)(c1ccccc1)[C@H](Oc1nc(C)cc(C)n1)C(=O)O
n
COc1cc2nc(N3CCCN(C)CC3)nc(NC3CCN(Cc4ccccc4)CC3)c2cc1OC
y
CC(C)C1CCC(C(=O)N[C@H](Cc2ccccc2)C(=O)O)CC1 (stereo not given in full)
n
COc1nc(N)nc2c1ncn2[C@@H]1O[C@H](CO)[C@@H](O)[C@@H]1O
n
CO[C@@]12[C@H](COC(N)=O)C3=C(C(=O)C(C)=C(N)C3=O)N1C[C@@H]1N[C@@H]12
n

What was the test verdict on `O=c1cc(O)c(Cl)c[nH]1` ? y

What was the test verdict on `COc1cc(NS(=O)(=O)c2ccc(N)cc2)nc(OC)n1` ? n

What was the test verdict on `CC(C)OC(=O)C(C(=O)OC(C)C)=C1SC=CS1` ? n

What was the test verdict on `C#CCN[C@@H]1CCc2ccccc21` ? n
